Origin of measurements: ChEMBL document CHEMBL4513216

# System: Plasmodium berghei
# TEST_PROTOCOL: Screen against P. berghei liver stage (PbLuc), transformed with Luciferase, at 2uM
# Type: functional, HepG2
# CONDITION_SUMMARY: tested at 2 uM
Hit rate of the full screen: of about 68,000 compounds, about 2,700 (4%) showed an effect of 50% or more. Shown is part of a subset that was picked to be rich in strong results.
Param label: returns Fulfilled when INHIBITION < 20%, returns Not fulfilled otherwise, including exact equality.

Answered cases to consult:
COMPOUND: COCCCNC(=O)NCc1nc(C)c(C)o1
GROUP: Fulfilled
//
COMPOUND: CCCc1cc(CN(C)C2CSCCSC2)n[nH]1
GROUP: Fulfilled
//
COMPOUND: Cc1nc(CNC(=O)NCCC2=CCCC2)oc1C
GROUP: Not fulfilled
//
COMPOUND: Cn1nc(C(=O)N2CCCC(n3cncn3)C2)ccc1=O (centres undefined)
GROUP: Fulfilled
//
COMPOUND: COc1ccc(C[C@H]2CN(C3CCOCC3)CC[C@@H]2OCC2CC2)cc1
GROUP: Not fulfilled

// query Does the reported INHIBITION of the following compound sit strictly below 20%? CN(C)C(=O)COC1COC2(CCN(c3cnccn3)CC2)C1 (centres undefined)
// result Fulfilled

// query Does the reported INHIBITION of the following compound sit strictly below 20%? O=C(c1ccc(F)cc1)N1CCN2C[C@H](OCc3ccccn3)C[C@H]2C1
// result Fulfilled

// query Does the reported INHIBITION of the following compound sit strictly below 20%? CCCNC(=O)NCc1nc(C)c(C)o1
// result Not fulfilled

// query Does the reported INHIBITION of the following compound sit strictly below 20%? Cc1cc(C2CCCN(C(=O)COc3cc(C)on3)C2)n[nH]1 (centres undefined)
// result Not fulfilled

// query Does the reported INHIBITION of the following compound sit strictly below 20%? CCCc1cc(CN(C)C2CC(C)(C)NC(C)(C)C2)n[nH]1
// result Not fulfilled
